target-system: AgLsb1
method-summary: SPOT peptide array binding signal intensity (averaged, normalized) (arbitrary units (background-subtracted, floor 0; scale differs between SH3 domains)); higher = stronger binding of the SH3 domain to the peptide
Each entry gets condition not met if its SPOT peptide array binding signal intensity stays under 20, and condition met if its SPOT peptide array binding signal intensity is 20 or above.

binder | discrete-label
AHFQPQRTAPKPPIS | condition not met
QRKSLRRPTLSKPAV | condition not met
VNIPSPSSSPPPIPK | condition not met
APPPPPRRATPEKKP | condition not met
RRRDFGAPANKRPRR | condition not met
ALFRLSFFFPLDPAY | condition met
AATTSTPPLPRRRAT | condition met
